pIC50: −log10 of the molar value.
Literature survey of pIC50 (system: PIK3CA (human) (UniProt P42336)).

Example cases with answers are listed next.
Cc1cccc2cc(Cn3nc(-c4cccc(O)c4)c4c(N)ncnc43)n(C3CCCC3)c(=O)c12    < 5.00
C[C@H](Nc1ncnc2[nH]cnc12)c1cc2cccc(Cl)c2c(C(=O)NCc2ccccc2)n1    < 5.00

GET /value?item= `C[C@@H]1CN(C(=O)c2nc([C@H](C)Nc3ncnc4[nH]cnc34)cc3cccc(Cl)c23)CCN1` &field=pIC50 returns < 5.00

The compound identified as `CC1(C)CN(C2CN(c3cnc4ccc(-c5ccc6oc(N)nc6c5)nc4n3)C2)CCO1` registered its pIC50 at > 6.00

For `Cc1ccccc1-n1c(Cn2nc(Br)c3c(N)ncnc32)nc2scc(C)c2c1=O` the compound record lists pIC50 as < 5.00

Sample `FC[C@@H]1CCCN1[C@H]1CC[C@@H](CNc2cc(-n3c(C(F)F)nc4ccccc43)nc(N3CCOCC3)n2)CC1` ; pIC50 observed: < 5.00

Input `Cc1cccc2cc([C@H](C)Nc3ncnc4[nH]cc(F)c34)n(C3CC3)c(=O)c12` . Output pIC50: > 6.00

For this compound ( `Nc1nc2cc(-c3ccc4ncc(C(=O)N5CCC6(C5)OCCO6)n4c3)ccc2o1` ), measured pIC50 is > 6.00

---

pIC50: −log10 of the molar value.
# pIC50 against PIK3CA (human), merged from multiple literature sources

Illustrative cases are given below, each with its answer.
COc1ncc(-c2cc(OCC3CC3)c3ncnc(C)c3c2)cc1NS(=O)(=O)c1ccc(F)cc1F    8.80
CCn1c(CN(C)Cc2ccc(/C=C/C(=O)NO)cc2)nc2c(N3CCOCC3)nc(-c3ccc(C(N)=O)cc3)nc21    6.00 to 7.00
COc1cc(-c2ccc3ncc4ncn(-c5ccc(C(C)(C)C#N)nc5)c4c3n2)cnc1OC    > 7.00
COCCN(CC1CC1)[C@H]1CC[C@H](CNc2nc(N3CCOCC3)cc(-n3c(C(F)F)nc4ccccc43)n2)CC1    5.60
COc1ncc(-c2ccc3nccc(N4CCOCC4)c3c2)cc1NS(=O)(=O)c1ccc(F)cc1F    8.85
O=C(c1cnc2ccc(-c3cncc4[nH]ncc34)cn12)N1CCOCC1    > 7.00
Nc1nc2cc(-c3ccc4ncc(C(=O)N5CC(N6CCOCC6)C5)n4c3)ccc2o1    > 7.00
c1cc(-c2nc(N3CCOCC3)c3cc[nH]c3n2)c2cn[nH]c2c1    6.08

The recorded pIC50 for `C[C@H](Nc1ncnc2cccnc12)c1cc2cccc(Cl)c2c(C(=O)N2CCCCC2)n1` is > 5.00

Input `Cn1cc(/C=C2\Oc3cccc(O)c3C2=O)c2c(-c3ccc(C(=O)NCCCO)cc3)ccnc21` . Output pIC50: 7.42

The recorded pIC50 for entry `C[C@H](Nc1ncnc2scnc12)c1cc2cccc(Cl)c2c(OC2CCN(S(C)(=O)=O)CC2)n1` equals < 5.00

---

Consider the following IC50 data for PIK3CA (human) (UniProt P42336), collected from several reports.
TEST_READOUT: IC50 (nM)

# example entries with known answers
CNC(=O)C(C)Cn1cnc2ccc(-c3cnc(OC)c(NS(=O)(=O)c4cccc(C)c4F)c3)cc2c1=O (single isomer, unassigned)    10.1
O=c1cc(Oc2ccc(Br)cc2)c2ccccc2[nH]1    4110
CC(=O)NC[C@@H]1CCN(C(=O)Nc2nc(C)c(-c3ccnc(C4(C)CC4)c3)s2)[C@@H]1C(N)=O    18
CNC(=O)[C@@H](C)Cn1cnc2ccc(-c3cnc(OC)c(NS(=O)(=O)c4cc(F)cc(F)c4)c3)cc2c1=O    5.39
Cn1cc(/C=C2\Oc3ccc(NC(=O)Nc4cccnc4)cc3C2=O)c2c(N3CC4CC3CO4)ccnc21 (stereo not drawn)    350
CCN(CC)c1ncc2c(n1)-c1sc(NC(=O)N3CCC[C@@]3(C)C(N)=O)nc1CC2    6.5

A = Cn1cc(/C=C2\Oc3ccc(Br)cc3C2=O)c2c(N3CC4CCC(C3)O4)ccnc21
B = CC(=O)Nc1cccc(Nc2nc(-c3cccc(O)c3)nc3c2cnn3C2CCN(Cc3ccccc3)CC2)c1
Enquiry: Just curious, which one has the larger IC50 reading, A or B ? Could you answer with the label of the item you picked?
Return: B
(B: 6180 nM, A: 391 nM)

---

Note to self: these molecules have pIC50 reported for PIK3CA (human) (UniProt P42336) in various publications.
pIC50: −log10 of the molar value.

The examples below pair each entry with its known result.
Cc1ccc(-c2cnc3ccc(-c4ccc5oc(N)nc5c4)cc3n2)cn1    > 7.00
Cn1cc(C=C2Oc3ccc(NC(=O)Nc4cccnc4)cc3C2=O)c2c(N3CCC(C(=O)N[C@@H]4CCNC4)CC3)ccnc21    ≤ 5.00
CC(=O)Nc1ccc(Oc2nc(-c3cccc(-c4ccccc4)c3)nc3c2cnn3C)cc1    5.34
Nc1nc2cc(-c3ccc4ncc(N5CCN(CCO)CC5)nc4c3)ccc2o1    > 7.00
CC1(C)CCCC2(C)c3c(oc4c(B(O)O)c(O)c(O)cc34)CCC12 (centres unmarked)    7.64

Reported pIC50 of `C[C@H](Nc1ncnc2[nH]cc(C(N)=O)c12)c1cc2cccc(C(F)(F)F)c2c(=O)n1-c1ccccc1` : 5.00 to 6.00

Entry under test: `CCCS(=O)(=O)Nc1ccc(F)c(C(=O)c2c[nH]c3ncc(-c4cncc(S(C)(=O)=O)c4)cc23)c1F` . Its pIC50 was ≥ 5.00

get_value(item= `CCC(=O)Nc1cccc(-c2cnc3c(N4CCOCC4)nc(-c4cnc(N)nc4)nc3c2)c1` , readout=pIC50) returns > 7.30

---

pIC50: −log10 of the molar value.
// compounds with pIC50 on PIK3CA (human) (UniProt P42336), multi-source literature

Below, 7 compounds whose answers are already recorded.
COc1ncc(-c2ccc3ncn(CC(C(N)=O)C(C)C)c(=O)c3c2)cc1NS(=O)(=O)c1ccc(F)cc1Cl (centres unmarked)    7.59
Cc1cccc2cc([C@@H](C)Nc3ncnc4[nH]cnc34)n(C3CCC3)c(=O)c12    < 5.00
CNC(=O)C(C)Cn1cnc2ccc(-c3cnc(OC)c(NS(=O)(=O)c4cc(C)cc(F)c4)c3)cc2c1=O (single isomer, unassigned)    8.32
Nc1nc2ccc(-c3ccc4ncc(C(=O)N5CCOCC5)n4c3)cc2o1    > 6.00
O=c1cc(Oc2cccc(-c3ccc(NC4CCNCC4)cc3)c2)c2ccccc2[nH]1    < 5.00
C[C@H](NC(=O)c1nccnc1N)c1cc2cccc(Cl)c2c(=O)n1-c1ccccc1    5.00 to 6.00
C[C@H](NC(=O)c1c(N)nn2cccnc12)c1cc2ccsc2c(=O)n1-c1ccccc1    < 5.00

Item `Cc1nn(C)cc1-c1nc2[nH]c(C(=O)N3CCC(C(N)=O)CC3)nc2c(N2CCOCC2)c1F` ; assay system PIK3CA (human) (UniProt P42336); pIC50 reported as < 6.00

---

pIC50: −log10 of the molar value.
Below: molecules with pIC50 recorded for PIK3CA (human) in separate published works.

Here's what some known entries look like.
CNC(=O)Nc1ccc2c(c1)C(=O)/C(=C/c1cn(C)c3nccc(N4CC5CCC(C4)O5)c13)O2    6.24
CS(=O)(=O)N1CCC(N2CCC(CNc3nc(N4CCOCC4)cc(-n4c(C(F)F)nc5ccccc54)n3)CC2)CC1    < 5.52
C[C@H](NC(=O)c1cnn2cccnc12)c1cc2cccc(Cl)c2c(=O)n1-c1ccc(F)cc1    5.00 to 6.00
Cc1csc2nc(C(C)Nc3nc(N)nc4[nH]cnc34)c(-c3cc(F)cc(F)c3)c(=O)n12 (stereo not shown)    < 6.30
Cc1c(-c2ccc3oc(N)nc3c2)ccc2ncc(C(=O)N3CCOCC3)n12    < 5.00

Lab entry: PIK3CA (human) assay, molecule `C[C@H](Nc1ncnc2[nH]cnc12)c1cc2cccc(-c3cnn(C)c3)c2c(CCN2CCOCC2)n1` , pIC50 = < 5.00

Form field, pIC50 with PIK3CA (human), item `CC1(C)CN(c2nc3c(N4CCOCC4)nc(-c4cnc(N)nc4)nc3n2CC(F)(F)F)CCN1C(=O)CO` : 7.70 to 8.00

Field pIC50 (system: PIK3CA (human)) for entry `Cc1nc2ccc(-c3ccc4c(c3)CN(C(=O)N3CCC(c5noc(C)n5)CC3)CCO4)cc2[nH]1` = 5.52 to 6.00

Lab entry: PIK3CA (human) assay, molecule `Cn1cc(/C=C2\Oc3cccc(O)c3C2=O)c2c(-c3cccc(C(=O)N4CCCC4)c3)ccnc21` , pIC50 = 6.74

Readout pIC50 for `COc1ccc(-c2ccnc3c2c(/C=C2\Oc4cc(O)cc(O)c4C2=O)cn3C)cc1S(=O)(=O)N1CCOCC1` , test system PIK3CA (human), was 8.10

The value of pIC50 recorded for `CCc1ccccc1-n1c(Cn2nc(Br)c3c(N)ncnc32)nc2scc(C)c2c1=O` when tested on PIK3CA (human) reads < 5.00

Sample `Nc1nc2cc(-c3cn4c(-c5ccncc5)cnc4cn3)ccc2o1` , system: PIK3CA (human). Its pIC50 is > 7.00

pIC50 on PIK3CA (human) for `Cc1nc2ccc(-c3ccc4c(c3)CN(C(=O)N3CCC(=C(F)F)CC3)CCO4)cc2[nH]1` is 6.30 to 6.70

For CN(CC(=O)NC1CCC(Oc2cc(-n3c(C(F)F)nc4ccccc43)nc(N3CCOCC3)n2)CC1)C1CCC1 (stereo not shown) on PIK3CA (human), measured pIC50 was < 5.00

With PIK3CA (human) as the test system, `C[C@H](NC(=O)c1c(N)nn2cccnc12)c1cc2cccc(N3CCN(C)CC3)c2c(=O)n1-c1ccccc1` showed pIC50 of < 5.00

Simply: `CCn1c(CN(C)Cc2ccc(C(=O)NO)cc2)nc2c(N3CCOCC3)nc(-c3cnc(N)nc3)nc21` , PIK3CA (human), pIC50 = 7.00 to 8.00

Result for `N#CCc1ccc(Nc2ncnc3ccc(-c4cccc([N+](=O)[O-])c4)cc23)cc1` , tested on PIK3CA (human), pIC50: 6.35
